The reader will find reported logP values listed item by item below.
Assay: Log P by HPLC on reversed phase columns, method [a] (EEC directive 79/831 Annex V.A8)
Type: physicochemical
Conditions: log P determined according to method [a] (HPLC on reversed phase columns)
observable: logP

compound: O=C(O)c1ccc(-c2nnc(C(F)F)o2)cn1 [Example I-032]
value: 0.83
//
compound: FC(F)c1nnc(-c2cnc(Nc3ccccc3)nc2)o1 [Example I-076]
value: 2.54
//
compound: FC(F)c1nnc(-c2ccc(COc3ccc(Cl)cc3)cc2)o1 [Example I-024]
value: 4.03
//
compound: FC(F)c1nnc(-c2cnc(Sc3ccccc3)nc2)o1 [Example I-092]
value: 3.04
//
compound: FC(F)c1nnc(-c2ccc(Nc3ncccn3)cc2)o1 [Example I-013]
value: 2.23
//
compound: FC(F)c1nnc(-c2cnc(NC3(C4CC4)CC3)nc2)o1 [Example I-082]
value: 2.33
//
compound: COC(=O)Nc1ccc(-c2nnc(C(F)F)o2)cn1 [Example I-038]
value: 1.66
//
compound: C#CCNc1ncc(-c2nnc(C(F)F)o2)cn1 [Example I-063]
value: 1.59
//
compound: Fc1cccc(Nc2ncc(-c3nnc(C(F)F)o3)cn2)c1 [Example I-094]
value: 2.77
//
compound: Fc1ccccc1C1(Nc2ccc(-c3nnc(C(F)F)o3)cc2)CC1 [Example I-025]
value: 3.57
//
compound: CN(C)Nc1ncc(-c2nnc(C(F)F)o2)cn1 [Example I-064]
value: 0.76

----------
The reader will find reported inhibition of growth at 20 µg/mL values listed item by item below.
Tested on: Colletotrichum lindemuthianum
Assay: Example B: in vitro cell test, spore germination and mycelium growth in liquid culture
Format: cell-based
Conditions: 144 h, 20 ppm of tested compound, 6 days incubation, read-out: efficacy (inhibition of fungal growth)

molecule: FC(F)c1nnc(-c2ccc(Nc3ncccn3)cc2)o1
inhibition of growth at 20 µg/mL: 90 to 100%
--
molecule: Fc1cccc(C2(Nc3ncc(-c4nnc(C(F)F)o4)cn3)CCCC2)c1
inhibition of growth at 20 µg/mL: 70 to 79%
--
molecule: FC(F)c1nnc(-c2cnc(NCC3(c4ccccc4)CC3)nc2)o1
inhibition of growth at 20 µg/mL: 80 to 89%
--
molecule: C#CC(Nc1ncc(-c2nnc(C(F)F)o2)cn1)c1ccccc1 (racemic)
inhibition of growth at 20 µg/mL: 90 to 100%
--
molecule: FC(F)c1nnc(-c2cnc(NC3(c4ccccc4Br)CC3)nc2)o1
inhibition of growth at 20 µg/mL: 80 to 89%
--
molecule: COCCNc1ncc(-c2nnc(C(F)F)o2)cn1
inhibition of growth at 20 µg/mL: 90 to 100%
--
molecule: Fc1ccc(-c2ncc(-c3nnc(C(F)F)o3)cn2)cc1
inhibition of growth at 20 µg/mL: 90 to 100%
--
molecule: CC(C)C(Nc1ncc(-c2nnc(C(F)F)o2)cn1)c1ccccc1 (racemic)
inhibition of growth at 20 µg/mL: 90 to 100%
--
molecule: Fc1cccc(F)c1C1(Nc2ncc(-c3nnc(C(F)F)o3)cn2)CCC1
inhibition of growth at 20 µg/mL: 90 to 100%
--
molecule: FC(F)c1nnc(-c2cnc(NCC3CC3)nc2)o1
inhibition of growth at 20 µg/mL: 80 to 89%
--
molecule: CC(C)(Nc1ncc(-c2nnc(C(F)F)o2)cn1)c1ccc(F)cc1
inhibition of growth at 20 µg/mL: 80 to 89%
--
molecule: Fc1ccccc1C1(Nc2ncc(-c3nnc(C(F)(F)F)o3)cn2)CC1
inhibition of growth at 20 µg/mL: 80 to 89%
--
molecule: Fc1ccc(C(Nc2ncc(-c3nnc(C(F)F)o3)cn2)C(F)(F)F)cc1 (racemic)
inhibition of growth at 20 µg/mL: 80 to 89%
--
molecule: N#CC(Nc1ncc(-c2nnc(C(F)F)o2)cn1)c1ccc(F)cc1 (racemic)
inhibition of growth at 20 µg/mL: 70 to 79%
--
molecule: FC(F)c1nnc(-c2cnc(NC(c3ccccc3)C3CC3)nc2)o1 (racemic)
inhibition of growth at 20 µg/mL: 80 to 89%
--
molecule: N#Cc1ccc(C2(Nc3ncc(-c4nnc(C(F)F)o4)cn3)CC2)cc1
inhibition of growth at 20 µg/mL: 90 to 100%
--
molecule: FC(F)c1nnc(-c2cnc(NC3(c4ccccc4)CCC3)nc2)s1
inhibition of growth at 20 µg/mL: 90 to 100%
--
molecule: Cc1ccccc1C1(Nc2ncc(-c3nnc(C(F)F)o3)cn2)CC1
inhibition of growth at 20 µg/mL: 70 to 79%
--
molecule: FC(F)c1nnc(-c2cnc(Cl)nc2)o1
inhibition of growth at 20 µg/mL: 90 to 100%
--
molecule: FC(F)c1nnc(-c2cnc(NC3(c4ccc(Cl)cc4)CCCCC3)nc2)o1
inhibition of growth at 20 µg/mL: 70 to 79%
--
molecule: Fc1ccccc1C1(Nc2ncc(-c3nnc(C(F)F)o3)cn2)CC1
inhibition of growth at 20 µg/mL: 90 to 100%
--
molecule: FC(F)c1nnc(-c2cnc(Nc3ccccc3-c3ccccc3)nc2)o1
inhibition of growth at 20 µg/mL: 80 to 89%
--
molecule: Fc1ccccc1C1(Nc2ccc(-c3nnc(C(F)F)o3)cc2)CC1
inhibition of growth at 20 µg/mL: 80 to 89%
--
molecule: COc1ccc(-c2ncc(-c3nnc(C(F)F)o3)cn2)cc1
inhibition of growth at 20 µg/mL: 90 to 100%
--
molecule: Fc1ccccc1Nc1ccc(-c2nnc(C(F)F)o2)cc1
inhibition of growth at 20 µg/mL: 90 to 100%
--
molecule: Fc1cccc(C2(Nc3ncc(-c4nnc(C(F)F)o4)cn3)CC2)c1
inhibition of growth at 20 µg/mL: 80 to 89%
--
molecule: CC(Nc1ncc(-c2nnc(C(F)F)o2)cn1)c1ccc(F)cc1 (racemic)
inhibition of growth at 20 µg/mL: 80 to 89%
--
molecule: FC(F)c1nnc(-c2cnc(OC3(c4ccccc4)CC3)nc2)o1
inhibition of growth at 20 µg/mL: 70 to 79%
--
molecule: Fc1ccccc1C1(Nc2ncc(-c3nnc(C(F)F)o3)cn2)CCCC1
inhibition of growth at 20 µg/mL: 70 to 79%
--
molecule: Fc1ccc(CNc2ncc(-c3nnc(C(F)F)o3)cn2)cc1
inhibition of growth at 20 µg/mL: 70 to 79%
--
molecule: CON(Cc1ccc(Cl)cc1)c1ncc(-c2nnc(C(F)F)o2)cn1
inhibition of growth at 20 µg/mL: 80 to 89%
--
molecule: C#CCNc1ncc(-c2nnc(C(F)F)o2)cn1
inhibition of growth at 20 µg/mL: 90 to 100%
--
molecule: FC(F)(F)c1nnc(-c2cnc(NC3(c4ccccc4)CCC3)nc2)s1
inhibition of growth at 20 µg/mL: 80 to 89%
--
molecule: Fc1ccccc1Nc1ncc(-c2nnc(C(F)(F)Cl)o2)cn1
inhibition of growth at 20 µg/mL: 90 to 100%
--
molecule: FC(F)c1nnc(-c2cnc(NC3(c4cccc(Cl)c4)CCC3)nc2)o1
inhibition of growth at 20 µg/mL: 80 to 89%
